# ASSAY_SYSTEM: recombinant TFPI of the FXa restoring assay (human, mouse or rat; species not stated for Tables 9 and 10)
# PROTOCOL: cell-based or functional assay
# cutoff 2 fold applies to Improvement of IC50 vs 2A8wt; >= gives T, < gives F

{"BINDER": "2A8 HC K99V (Fab, V domains shown) VH: QVQLVESGGGLVQPGGSLRLSCAASGFTFRSYGMSWVRQAPGKGLEWVSSIRGSSSSTYYADSVKGRFTISRDNSKNTLYLQMNSLRAEDTAVYYCARVYRYWFDYWGQGTLVTVSS VL: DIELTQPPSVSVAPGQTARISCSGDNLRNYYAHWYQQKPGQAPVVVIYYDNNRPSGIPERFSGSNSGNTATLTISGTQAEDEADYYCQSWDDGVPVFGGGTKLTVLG", "DISCRETE_LABEL": "F"}
{"BINDER": "2A8 HC S35D (Fab, V domains shown) VH: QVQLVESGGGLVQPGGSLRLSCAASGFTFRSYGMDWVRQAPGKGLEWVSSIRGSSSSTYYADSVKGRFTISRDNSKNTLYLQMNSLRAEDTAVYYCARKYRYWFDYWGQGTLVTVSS VL: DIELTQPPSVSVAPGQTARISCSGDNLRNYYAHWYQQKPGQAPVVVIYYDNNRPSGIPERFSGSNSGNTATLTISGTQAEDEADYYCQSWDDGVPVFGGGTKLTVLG", "DISCRETE_LABEL": "F"}

Moving on to the next binder.
Ask: I'd appreciate it if you could say whether 2A8 LC D91K (Fab, V domains shown) VH: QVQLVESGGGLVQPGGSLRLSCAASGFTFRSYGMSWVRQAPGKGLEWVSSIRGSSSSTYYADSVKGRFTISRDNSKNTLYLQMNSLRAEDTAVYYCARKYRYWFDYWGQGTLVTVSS VL: DIELTQPPSVSVAPGQTARISCSGDNLRNYYAHWYQQKPGQAPVVVIYYDNNRPSGIPERFSGSNSGNTATLTISGTQAEDEADYYCQSWKDGVPVFGGGTKLTVLG has Improvement of IC50 vs 2A8wt at least equal to 2 fold.
Result: F

Each recorded value in this set is attributed to patent US20120108796A1.
